- measuredTarget: T1, ARID4B TD151 (Homo sapiens, UniProt Q4LE39 1-151)
- T1 sequence: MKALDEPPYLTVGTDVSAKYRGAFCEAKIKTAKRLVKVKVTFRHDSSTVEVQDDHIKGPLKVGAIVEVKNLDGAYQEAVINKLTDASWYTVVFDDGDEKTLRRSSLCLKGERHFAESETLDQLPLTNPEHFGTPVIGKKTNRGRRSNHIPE
- testDetails: NMR titration; n fixed 2; 50 mM Tris-HCl pH 7.6, 50 mM NaCl (buffer A); ITC 25 C; EMSA 4 C, 12 uM DNA, 8% native gel in TBE; NMR titration by 1H-15N HSQC (temperature not stated for titration; buffer A also defined elsewhere as 20 mM phosphate, 100 mM NaCl, pH 7.0)
- conditionSet: protein: recombinant; chain copies: 3; 5' overhang 1 nt on each strand (11 bp paired)
valueKind: Kd (µM)
Number in µM, nothing else.

Inquiry: Bench note: what Kd did dsDNA2 (dsDNA) DNA 1: CTGTCAAAGGTG DNA 2: TCACCTTTGACA show?
Reply text: 79
